# Study system: UniProt Q9JN24
# Sequence (Q9JN24 whole entry): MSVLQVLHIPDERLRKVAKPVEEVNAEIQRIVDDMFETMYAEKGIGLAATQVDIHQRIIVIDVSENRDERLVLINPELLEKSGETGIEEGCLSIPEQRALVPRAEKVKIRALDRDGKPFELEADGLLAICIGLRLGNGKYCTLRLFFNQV
# Run description: Inhibition of NiCl2 stabilized Escherichia coli NCIM-2931 peptide deformylase using N-formyl-Met-Ala as substrate incubated for 30 mins by spectrophotometric method
Measured metric: IC50 (µM)

- N#Cc1ccccc1-c1ccc(CNc2cccc([N+](=O)[O-])c2)cc1: 25
- COc1ccc2nc(NCc3ccc(-c4ccccc4C#N)cc3)sc2c1: 27.8
- N#Cc1ccccc1-c1ccc(CNc2ccccc2)cc1: 13.2
- N#Cc1ccccc1-c1ccc(CNc2ccc(N3CCOCC3)c(F)c2)cc1: 42.5
- N#Cc1ccccc1-c1ccc(CNc2cccc(C(F)(F)F)c2)cc1: 20.9
- N#Cc1ccccc1-c1ccc(CNc2ccc(C(=O)O)cc2)cc1: 51.2
- N#Cc1ccccc1-c1ccc(CNc2ccc(C(F)(F)F)cc2)cc1: 33.5
